# Tested on: Staphylococcus aureus
# measurementDescription: Antibacterial activity against Staphylococcus aureus assessed as inhibition of bacterial growth measured after 24 hrs incubation
# Format: functional
Rule for this label: TRUE means MIC is less than 30 µg/mL; FALSE means MIC is at least 30 µg/mL.

Known results for compounds:
[
  {
    "moleculeSmiles": "CCn1cc(C(=O)O)c(=O)c2cc(F)c(N3CCN(C(=O)/C(C#N)=C/c4cn(Cc5ccc(Cl)cc5)c5ccccc45)CC3)cc21",
    "targetEntity": "Staphylococcus aureus",
    "className": "FALSE"
  },
  {
    "moleculeSmiles": "C=CCn1cc(C(=O)O)c(=O)c2cc(F)c(N3CCN(C(=O)/C(C#N)=C/c4cn(CC(=O)OCC)c5ccccc45)CC3)cc21",
    "targetEntity": "Staphylococcus aureus",
    "className": "TRUE"
  },
  {
    "moleculeSmiles": "CCCCCn1cc(/C=C(\\C#N)C(=O)N2CCN(c3cc4c(cc3F)c(=O)c(C(=O)O)cn4CC)CC2)c2ccccc21",
    "targetEntity": "Staphylococcus aureus",
    "className": "FALSE"
  },
  {
    "moleculeSmiles": "CCOC(=O)Cn1cc(/C=C(\\C#N)C(=O)N2CCN(c3cc4c(cc3F)c(=O)c(C(=O)O)cn4Cc3ccccc3)CC2)c2ccccc21",
    "targetEntity": "Staphylococcus aureus",
    "className": "FALSE"
  },
  {
    "moleculeSmiles": "CCn1cc(C(=O)O)c(=O)c2cc(F)c(N3CCN(C(=O)/C(C#N)=C/c4c[nH]c5cc(C)ccc45)CC3)cc21",
    "targetEntity": "Staphylococcus aureus",
    "className": "TRUE"
  },
  {
    "moleculeSmiles": "C#CCn1cc(/C=C(\\C#N)C(=O)N2CCN(c3cc4c(cc3F)c(=O)c(C(=O)O)cn4CC)CC2)c2ccccc21",
    "targetEntity": "Staphylococcus aureus",
    "className": "TRUE"
  }
]

Kindly consider the entry below.
Answer whether the compound CCCCn1cc(/C=C(\C#N)C(=O)N2CCN(c3cc4c(cc3F)c(=O)c(C(=O)O)cn4CC)CC2)c2ccccc21 has MIC strictly less than 30 µg/mL
TRUE
